# shrunken log2 fold change listing for each entry below
System: Escherichia coli TOP10
ASSAY PROCEDURE: shrunken log2 fold change of peptide-encoding DNA abundance (4.5 h post-induction vs induction); higher = less antimicrobial activity (less host growth inhibition)
DETAILS: time post-induction: 4.5 h; library: site-saturation at positions 5, 18, 19, 20
// keep it numeric: no unit symbol after the value

The following sequences have reported results that may help.
RRIRTRPPRLPRPRPRPWQVPRP: -0.0764
RRIRWRPPRLPRPRPRPVLTPRP: 0.147
RRIRTRPPRLPRPRPRPCWCPRP: -0.0474

Bench note: what shrunken log2 fold change did RRIRSRPPRLPRPRPRPNCPPRP show?
-0.374

Quick one: shrunken log2 fold change for RRIRDRPPRLPRPRPRPGTYPRP ?
-0.227

Name the reported shrunken log2 fold change value associated with the sequence RRIRWRPPRLPRPRPRPHVWPRP
0.126

---

Measured shrunken log2 fold change accompanies every entry in the list below.
Tested on: Escherichia coli TOP10
ASSAY PROCEDURE: shrunken log2 fold change of peptide-encoding DNA abundance (4.5 h post-induction vs induction); higher = less antimicrobial activity (less host growth inhibition)
DETAILS: time post-induction: 4.5 h; library: site-saturation at positions 5, 18, 19, 20
Form rule: numeric answer, no unit written next to it.

RRIRVRPPRLPRPRPRPRYNPRP: -0.381
RRIRWRPPRLPRPRPRPANHPRP: -0.262
RRIRDRPPRLPRPRPRPAMCPRP: 0.531
RRIRNRPPRLPRPRPRPGQMPRP: 0.00315
RRIRCRPPRLPRPRPRPACCPRP: 0.306

Report shrunken log2 fold change for RRIRNRPPRLPRPRPRPSDEPRP please.
-0.189

Which shrunken log2 fold change is reported for this sequence? RRIRHRPPRLPRPRPRPNWAPRP
-0.0735

// lookup shrunken log2 fold change for RRIRWRPPRLPRPRPRPEAHPRP
0.219

Recorded shrunken log2 fold change of RRIRYRPPRLPRPRPRPLSNPRP , please.
-0.233

---

Tested on: Escherichia coli TOP10;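 also: peptides expressed intracellularly from a pBAD plasmid library in pooled LB shake-flask culture, induced with 0.3% L-arabinose, DNA abundance read by NGS, three biological replicates, DESeq2 with apeglm shrinkage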
ASSAY PROCEDURE: shrunken log2 fold change of peptide-encoding DNA abundance (4.5 h post-induction vs induction); higher = less antimicrobial activity (less host growth inhibition)
DETAILS: time post-induction: 4.5 h; library: site-saturation at positions 5, 18, 19, 20
REPORTED ENDPOINT: shrunken log2 fold change
Keep the answer to the number alone.

The following sequences have reported results that may help.
RRIRFRPPRLPRPRPRPWYLPRP: -0.549
RRIRARPPRLPRPRPRPYMDPRP: -0.0602
RRIRYRPPRLPRPRPRPHCCPRP: -0.0599
RRIRLRPPRLPRPRPRPINGPRP: 0.015
RRIRKRPPRLPRPRPRPFSFPRP: 0.0267
RRIRQRPPRLPRPRPRPVFKPRP: -0.0447
RRIRERPPRLPRPRPRPDAKPRP: 0.0113
RRIRPRPPRLPRPRPRPGWRPRP: 0.438
RRIRDRPPRLPRPRPRPMWNPRP: 0.108
RRIRFRPPRLPRPRPRPDSMPRP: -0.715

What does the data say about its shrunken log2 fold change? Entry: RRIRYRPPRLPRPRPRPDSGPRP
-0.0811

Fill in the blank: the reported shrunken log2 fold change of RRIRHRPPRLPRPRPRPDCNPRP is ____.
-0.18

# shrunken log2 fold change lookup, item RRIRLRPPRLPRPRPRPYKGPRP
-0.027
